Reference source: patent US6545131B1

- Experiment notes: Stability of PSA substrates in serum (AMC release)
- Type: in vitro ADME
- Study conditions: human serum 100%, 0.2 mM substrate
Starred links: 1 amine or outer side, 2 acyl side, 3 side chain; linkers in the order of their positions; H or OH if unused. Residues, ends and D or L forms follow the SMILES beside them. *: point of attachment. AMC = Cc1cc(=O)oc2cc(N*)ccc12; Morpholide = C1CN(*)CCO1; CO = O=C([*:1])[*:2]
Parameter: picomles AMC released/minute: Human (picomoles/minute)

• CC[C@H](C)[C@H](NC(=O)[C@H](CCCCN)NC(=O)[C@H](CC(N)=O)NC(=O)[C@H](CCC(=O)O)NC(=O)N1CCOCC1)C(=O)N[C@@H](CO)C(=O)N[C@@H](Cc1ccc(O)cc1)C(=O)N[C@@H](CCC(N)=O)C(=O)Nc1ccc2c(C)cc(=O)oc2c1 [ENKISYQ, Glu-Asn-Lys-Ile-Ser-Tyr-Gln] ({Morpholide-CO}-ENKISYQ-{AMC}) = 1.27
• CC[C@H](C)[C@H](NC(=O)[C@H](CCCCN)NC(=O)[C@H](CC(N)=O)NC(=O)[C@H](CCC(N)=O)NC(=O)N1CCOCC1)C(=O)N[C@@H](CO)C(=O)N[C@@H](Cc1ccc(O)cc1)C(=O)N[C@@H](CCC(N)=O)C(=O)Nc1ccc2c(C)cc(=O)oc2c1 [QNKISYQ, Gln-Asn-Lys-Ile-Ser-Tyr-Gln] ({Morpholide-CO}-QNKISYQ-{AMC}) = 1.54
